Target: human serum albumin (HSA) (Homo sapiens)
Details: Nap-dU at n (6) positions [5,11,13,19,21,23,28,36,38,42,43,44,45]; ELISA, SB18, 37 C
property: Kd (nM)
Quick note: give the figure in nM, leave out the unit.

CAGGTCGAGCTGTACGCGTGTGTGACCTGAAGACGTATAACTTTTACAG [AD046] has a reported Kd of 0.65

====

Target: human serum albumin (HSA) (Homo sapiens) (UniProt P02768)
Conditions: Nap-dU at n (6) positions [Nap-dU at 3,6,11,12,13,14,17,23,24,25,28,37]; ELISA, SB18, 37 C
property: pKd
API: returns pKd as number; meaning -log10 of concentration in mol/L.

Form field pKd, entry GATCCTGCCCTTTTAATCCGACTTTAATGGCCACGCTCAC [AA003] : 8.36

Reference source: patent US20230220399
